- measurement.notes: total protein half-life in vivo (active degradation + dilution); higher = more stable protein
- test.settings: E. coli NCM3722 delta-clpP; growth: N-lim chemostat; doubling time 6 h
The entries below come with measured total protein half-life in vivo values attached.
Express the reported value numerically, then name its unit.

Below: 5 sequences and their reported total protein half-life in vivo.
INSERT INTO measurements (macromolecule_sequence, value_reported) VALUES
  ('MTSPNILLTRIDNRLVHGQVGVTWTSTIGANLLVVVDDVVANDDIQQKLMGITAETYGFGIRFFTIEKTINVIGKAAPHQKIFLICRTPQTVRKLVEGGIDLKDVNVGNMHFSEGKKQISSKVYVDDQDLTDLRFIKQRGVNVFIQDVPGDQKEQIPD', '3.82 h'),
  ('MAELSDQEMLRYNRQIILRGFDFDGQEALKDSRVLIVGLGGLGCAASQYLASAGVGNLTLLDFDTVSLSNLQRQTLHSDATVGQPKVESARDALTRINPHIAITPVNALLDDAELAALIAEHDLVLDCTDNVAVRNQLNAGCFAAKVPLVSGAAIRMEGQITVFTYQDGEPCYRCLSRLFGENALTCVEAGVMAPLIGVIGSLQAMEAIKMLAGYGKPASGKIVMYDAMTCQFREMKLMRNPGCEVCGQ', '4.37 h'),
  ('MEISFTRVALLAAALFFVGCDQKPQPAKTHATEVTVLEGKTMGTFWRASIPGIDAKRSAELKEKIQTQLDADDQLLSTYKKDSALMRFNDSQSLSPWPVSEAMADIVTTSLRIGAKTDGAMDITVGPLVNLWGFGPEQQPVQIPSQEQIDAMKAKTGLQHLTVINQSHQQYLQKDLPDLYVDLSTVGEGYAADHLARLMEQEGISRYLVSVGGALNSRGMNGEGLPWRVAIQKPTDKENAVQAVVDINGHGISTSGSYRNYYELDGKRLSHVIDPQTGRPIEHNLVSVTVIAPTALEADAWDTGLMVLGPEKAKEVVRREGLAVYMITKEGDSFKTWMSPQFKSFLVSEKN [P0AB85]', '6.53 h'),
  ('MTVRVAINGFGRIGRNVVRALYESGRRAEITVVAINELADAAGMAHLLKYDTSHGRFAWEVRQERDQLFVGDDAIRVLHERSLQSLPWRELGVDVVLDCTGVYGSREHGEAHIAAGAKKVLFSHPGSNDLDATVVYGVNQDQLRAEHRIVSNASCTTNCIIPVIKLLDDAYGIESGTVTTIHSAMHDQQVIDAYHPDLRRTRAASQSIIPVDTKLAAGITRFFPQFNDRFEAIAVRVPTINVTAIDLSVTVKKPVKANEVNLLLQKAAQGAFHGIVDYTELPLVSVDFNHDPHSAIVDGTQTRVSGAHLIKTLVWCDNEWGFANRMLDTTLAMATVAFR [P0A9B6]', '5.54 h'),
  ('MSNTYQKRKASKEYGLYNQCKKLNDDELFRLLDDHNSLKRISSARVLQLRGGQDAVRLAIEFCSDKNYIRRDIGAFILGQIKICKKCEDNVFNILNNMALNDKSACVRATAIESTAQRCKKNPIYSPKIVEQSQITAFDKSTNVRRATAFAISVINDKATIPLLINLLKDPNGDVRNWAAFAININKYDNSDIRDCFVEMLQDKNEEVRIEAIIGLSYRKDKRVLSVLCDELKKNTVYDDIIEAAGELGDKTLLPVLDTMLYKFDDNEIITSAIDKLKRS [P0ADK6]', '4.9 h');

Continue with the next sequence.
Lab note: MSTLGHQYDNSLVSNAFGFLRLPMNFQPYDSDADWVITGVPFDMATSGRAGGRHGPAAIRQVSTNLAWEHNRFPWNFDMRERLNVVDCGDLVYAFGDAREMSEKLQAHAEKLLAAGKRMLSFGGDHFVTLPLLRAHAKHFGKMALVHFDAHTDTYANGCEFDHGTMFYTAPKEGLIDPNHSVQIGIRTEFDKDNGFTVLDACQVNDRSVDDVIAQVKQIVGDMPVYLTFDIDCLDPAFAPGTGTPVIGGLTSDRAIKLVRGLKDLNIVGMDVVEVAPAYDQSEITALAAATLALEMLYIQAAKKGE gave total protein half-life in vivo of 5.85 h

// provenance: the supplement of paper PMC11246515
